- measurement_description: probe aLefty2 binding to arrayed compounds – biochemical, biotinylated probe, 635/667 nm fluorescence, primary screen (AID 1094);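 note: score merges spot fluorescence near 667 nm with spot signal-to-noise ratio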
- experimental_setup: small-molecule microarray, higher = more signal
value_kind: composite z-score
Output: the number by itself.

These recorded examples may help you get a feel for the data.
>>> measured_value("COCCOC(=O)N1C(=O)[C@@]2(c3cc(C#CCC(C(=O)OC)C(=O)OC)ccc31)[C@H](C(=O)Nc1nc3ccccc3s1)[C@H]1C(=O)O[C@H](c3ccccc3)[C@H](c3ccccc3)N1[C@@H]2c1ccc(OCCO)cc1")
0.483
>>> measured_value("C=CCNC(=O)[C@@H]1[C@H]2C(=O)O[C@H](c3ccccc3)[C@H](c3ccccc3)N2[C@H](c2ccc(OCCO)cc2)[C@@]12C(=O)Nc1ccc(C#CC3(O)CCCCCC3)cc12")
0.0208

// switching to the query compound
INPUT: Which composite z-score is reported for this compound? O=C1N(CCS(=O)(=O)c2ccccc2)c2ccccc2C[C@]12N=C(c1ccc(OCCCO)cc1)O[C@@H]2c1ccccc1
OUTPUT: 0.225
